# Measured Target: ΔF508-CFTR (Homo sapiens, UniProt P13569, DEL508-508)
# Construct: host or cells: CFBE41o-, doxycycline-inducible
# Sequence (P13569 with tags, fused parts or gaps DEL508-508): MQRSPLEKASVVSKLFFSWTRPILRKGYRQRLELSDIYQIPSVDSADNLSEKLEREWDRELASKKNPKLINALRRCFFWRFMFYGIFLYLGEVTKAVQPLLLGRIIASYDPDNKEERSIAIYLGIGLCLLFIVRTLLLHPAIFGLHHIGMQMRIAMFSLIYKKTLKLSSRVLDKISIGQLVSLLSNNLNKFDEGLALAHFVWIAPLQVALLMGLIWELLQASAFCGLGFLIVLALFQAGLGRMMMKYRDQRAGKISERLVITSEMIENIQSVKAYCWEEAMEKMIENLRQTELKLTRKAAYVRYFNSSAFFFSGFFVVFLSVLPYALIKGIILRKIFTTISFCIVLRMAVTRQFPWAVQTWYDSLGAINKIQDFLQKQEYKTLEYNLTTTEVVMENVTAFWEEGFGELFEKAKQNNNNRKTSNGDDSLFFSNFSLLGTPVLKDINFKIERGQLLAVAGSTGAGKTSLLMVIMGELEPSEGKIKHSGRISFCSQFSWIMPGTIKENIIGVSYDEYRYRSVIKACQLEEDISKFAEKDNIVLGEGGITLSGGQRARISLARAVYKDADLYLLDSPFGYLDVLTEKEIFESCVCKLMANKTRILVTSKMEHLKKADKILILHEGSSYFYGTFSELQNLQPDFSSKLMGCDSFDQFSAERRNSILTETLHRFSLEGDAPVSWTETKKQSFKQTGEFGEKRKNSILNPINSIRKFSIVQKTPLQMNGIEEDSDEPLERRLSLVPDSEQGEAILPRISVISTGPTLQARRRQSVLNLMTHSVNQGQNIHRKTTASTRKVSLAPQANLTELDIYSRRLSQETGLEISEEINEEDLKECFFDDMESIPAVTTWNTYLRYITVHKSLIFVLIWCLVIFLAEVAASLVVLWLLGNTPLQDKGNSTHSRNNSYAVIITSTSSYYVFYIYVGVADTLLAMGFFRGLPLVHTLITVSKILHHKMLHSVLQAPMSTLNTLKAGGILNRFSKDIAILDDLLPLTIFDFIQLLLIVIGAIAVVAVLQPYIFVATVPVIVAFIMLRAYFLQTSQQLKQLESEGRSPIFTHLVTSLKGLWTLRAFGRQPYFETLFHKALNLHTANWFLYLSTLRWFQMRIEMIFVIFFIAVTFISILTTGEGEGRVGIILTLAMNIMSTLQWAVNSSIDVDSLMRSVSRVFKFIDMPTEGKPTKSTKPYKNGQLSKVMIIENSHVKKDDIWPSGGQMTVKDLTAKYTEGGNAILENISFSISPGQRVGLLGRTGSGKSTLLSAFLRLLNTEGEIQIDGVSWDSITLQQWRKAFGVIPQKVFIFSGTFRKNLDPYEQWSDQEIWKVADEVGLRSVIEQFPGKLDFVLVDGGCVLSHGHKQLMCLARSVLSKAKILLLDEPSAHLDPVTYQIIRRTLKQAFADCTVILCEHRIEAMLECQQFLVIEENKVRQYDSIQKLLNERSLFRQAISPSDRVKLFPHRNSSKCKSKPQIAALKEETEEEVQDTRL
# Method Summary: CFTR cell surface levels using HRP-tagged ΔF508-CFTR expressing CFBE cells, in the presence of a co-corrector
# Type: cell-based
# Protocol Conditions: HRP-tagged ΔF508-CFTR expressing CFBE cells, in the presence of 3 μM co-corrector; read-out: EC50
Quick rule for you: EC50 under 400 nM gets rule met, anything else gets rule not met.

{"Compound": "CC(C)c1nn(C2CCN(CC#N)C2)c2nc(C(=O)O)cc(-c3ccc(N4CCOCC4)cc3)c12 (stereo not shown)", "Group": "rule not met"}
{"Compound": "O=C(O)c1cc(OC2CCCC2)c2c(C3CCC3)nn(-c3ccccc3)c2n1", "Group": "rule met"}
{"Compound": "O=C(O)c1cc(OC2CCC2)c2c(C3CCC3)nn(-c3ccccc3)c2n1", "Group": "rule not met"}
{"Compound": "CO[C@H]1CC[C@H](Oc2cc(C(=O)O)nc3c2c(C2CCC2)nn3-c2ccccc2)CC1", "Group": "rule met"}
{"Compound": "CC(C)c1nn(-c2cccc(N(C)C)c2)c2nc(C(=O)O)cc(-c3cnc(N(C)C4CCOCC4)nc3)c12", "Group": "rule not met"}
{"Compound": "CC(C)c1nn(-c2cccc(C(F)(F)F)c2)c2nc(C(=O)O)cc(-c3ccc(N4CCC(C#N)CC4)nc3)c12", "Group": "rule not met"}
{"Compound": "Cc1ccc(-n2nc(C3CCC3)c3c(-c4ccc(N5CCOCC5)cc4)cc(C(=O)O)nc32)cc1F", "Group": "rule not met"}
{"Compound": "CC(C)c1nn(-c2ccc(F)cc2)c2nc(C(=O)O)cc(N3CC[C@@H](N4CCCCC4)C3)c12", "Group": "rule not met"}
{"Compound": "O=C(O)c1cc(OCCN2CCCCC2)c2c(C3CCC3)nn(-c3ccccc3)c2n1", "Group": "rule not met"}
{"Compound": "CC(C)Oc1nn(-c2ccccc2)c2nc(C(=O)O)cc(-c3ccc(N4CCOCC4)cc3)c12", "Group": "rule met"}
{"Compound": "CN1CCC2(CC1)CCN(c1cc(C(=O)O)nc3c1c(C1CCC1)nn3-c1ccccc1)CC2", "Group": "rule met"}
{"Compound": "CC(=O)N1CCC(n2nc(C(C)C)c3c(-c4ccc(N5CCOCC5)cc4)cc(C(=O)O)nc32)CC1", "Group": "rule not met"}
{"Compound": "O=C(O)c1cc(N2CCC3(C2)OCCO3)c2c(C3CCC3)nn(-c3ccccc3)c2n1", "Group": "rule not met"}

====

# Measured Target: ΔF508-CFTR (Homo sapiens, UniProt P13569, DEL508-508)
# Construct: host or cells: CFBE41o-, doxycycline-inducible
# Method Summary: CFTR cell surface levels using HRP-tagged ΔF508-CFTR expressing CFBE cells, intrinsic corrector capacity
# Type: cell-based
# Protocol Conditions: HRP-tagged ΔF508-CFTR CFBE41o- cells, compounds alone (intrinsic corrector capacity), 20 hours at 33° C.; positive control 3 μM corrector
# Text: Measuring CFTR Cell Surface Levels Using HRP-Tagged AF508-CFTR Expressing CFBE Cells The HRP-tagged AF508-CFTR cell assay measures the expression of CFTR-ΔF508 at the plasma membrane. […] When HRP-tagged AF508-CFTR is present at the plasma membrane, the HRP enzyme activity can be measured. The amount of CFTR-ΔF508 that can be rescued to the plasma membrane is correlated with the amount of functional enzyme that can be measured. […]
Quick rule for you: % Activation under 80% gets True, anything else gets False.

{"Compound": "Cc1cccc(-n2nc(C(C)C)c3c(N4CCC5(CCCCC5)CC4)cc(C(=O)O)nc32)c1", "Group": "False"}
{"Compound": "O=C(O)c1cc(N2CCC(OCC(=O)N3CCCC3)CC2)c2c(C3CCC3)nn(-c3ccccc3)c2n1", "Group": "False"}
{"Compound": "Cc1nn(-c2ccccc2)c2nc(C(=O)O)cc(N3CCC4(CCCO4)C3)c12 (centres unmarked)", "Group": "True"}
{"Compound": "CC(C)c1nn(C2CCCCC2)c2nc(C(=O)O)cc(-c3ccn(C)c3)c12", "Group": "False"}
{"Compound": "CC1CN(c2ccc(-c3cc(C(=O)O)nc4c3c(C(C)C)nn4C3CCCCC3)cn2)CC(C)O1 (centres unmarked)", "Group": "False"}
{"Compound": "Cc1cccc(-n2nc(C(C)C)c3c(N4CC5(CCCCO5)C4)cc(C(=O)O)nc32)c1", "Group": "False"}
{"Compound": "Cc1nn(-c2ccccc2)c2nc(C(=O)O)cc(N3CCCOCC3)c12", "Group": "True"}
{"Compound": "Cc1nn(C2CCCCC2)c2nc(C(=O)O)cc(-c3ccc(N4CCOCC4)nc3)c12", "Group": "False"}

====

# Measured Target: ΔF508-CFTR (Homo sapiens, UniProt P13569, DEL508-508)
# Construct: host or cells: CFBE41o-, doxycycline-inducible
# Method Summary: CFTR cell surface levels using HRP-tagged ΔF508-CFTR expressing CFBE cells, intrinsic corrector capacity
# Type: cell-based
# Protocol Conditions: HRP-tagged ΔF508-CFTR CFBE41o- cells, compounds alone (intrinsic corrector capacity), 20 hours at 33° C.; positive control 3 μM corrector
Definition: the class of an entry is the range in 0 = under 80%, 1 = from 80% up to 200%, 2 = 200% and over that contains its % Activation.

{"Compound": "CC(C)c1nn(-c2cccc(N3CCOCC3)c2)c2nc(C(=O)O)cc(-c3cnc(N(C)C4CCOCC4)nc3)c12", "Group": 2}
{"Compound": "N#CC1CCN(c2ccc(-c3cc(C(=O)O)nc4c3c(C3CCC3)nn4C3CCCCC3)cn2)CC1", "Group": 2}
{"Compound": "CC(C)c1nn(-c2ccc(F)cc2F)c2nc(C(=O)O)cc(-c3ccc(N4CCC(C#N)CC4)nc3)c12", "Group": 1}
{"Compound": "CC(C)c1nn(-c2ccc(F)cc2)c2nc(C(=O)O)cc(N3CCC(CO)CC3)c12", "Group": 2}
{"Compound": "COC(=O)N1CC(c2nn(C3CCCCC3)c3nc(C(=O)O)cc(-c4cnc(N(C)C)nc4)c23)C1", "Group": 0}
{"Compound": "CC(C)c1nn(C2CCCCC2)c2nc(C(=O)O)cc(-c3ccc(N4CCC(C#N)CC4)cc3)c12", "Group": 2}
{"Compound": "CC(C)c1nn(-c2cccc(C(F)(F)F)c2)c2nc(C(=O)O)cc(-c3cnc(N(C)C4CCOCC4)nc3)c12", "Group": 2}
{"Compound": "CC(C)c1nn(-c2cccc(F)c2)c2nc(C(=O)O)cc(-c3ccc(N(C)C4CCOCC4)nc3)c12", "Group": 2}
{"Compound": "CC(C)(C)OC(=O)N1CCCC1c1nn(-c2ccccc2)c2nc(C(=O)O)cc(-c3ccc(N4CCOCC4)nc3)c12 (stereo not drawn)", "Group": 1}
{"Compound": "Cc1nn(-c2ccccc2)c2nc(C(=O)O)cc(-c3ccc(N4CCS(=O)(=O)CC4)cc3)c12", "Group": 0}
{"Compound": "COCCN(C)c1ccc(-c2cc(C(=O)O)nc3c2c(C(C)C)nn3-c2cccc(N3CCCC3)c2)cc1", "Group": 2}
{"Compound": "Cc1nn(-c2cccc(Br)c2)c2nc(C(=O)O)cc(-c3ccc(N4CCOCC4)cc3)c12", "Group": 1}
{"Compound": "CC(C)c1nn(-c2cccc(N3CCOCC3)c2)c2nc(C(=O)O)cc(-c3cnc(N(C)C)nc3)c12", "Group": 2}
{"Compound": "Cc1nn(-c2ccccc2)c2nc(C(=O)O)cc(N3CC4CNCCN4C3=O)c12 (stereo not drawn)", "Group": 0}
{"Compound": "CC(C)c1nn(C2CCCCC2)c2nc(C(=O)O)cc(-c3cnc(N(C)C4CCOCC4)nc3)c12", "Group": 2}
{"Compound": "CN(C)c1ncc(-c2cc(C(=O)O)nc3c2c(C(C)(C)C)nn3C2CCCC2)cn1", "Group": 0}
{"Compound": "COc1ccc(-c2cc(C(=O)O)nc3c2c(C)nn3C2CCCCC2)cc1", "Group": 0}
{"Compound": "Cc1nn(-c2ccccc2)c2nc(C(=O)O)cc(OCCN(CC(C)C)C3CC3)c12", "Group": 0}
{"Compound": "CC(C)c1nn(-c2cccc(N3CCCC3)c2)c2nc(C(=O)O)cc(-c3ccc(N4CCC(C#N)CC4)cc3)c12", "Group": 2}
{"Compound": "Cc1nn(-c2ccccc2)c2nc(C(=O)O)cc(N3CCC(NS(C)(=O)=O)CC3)c12", "Group": 0}
{"Compound": "CC(C)c1nn(-c2cccc(N3CCOCC3)n2)c2nc(C(=O)O)cc(-c3ccc(N4CCOCC4)cc3)c12", "Group": 2}
{"Compound": "Cc1cccc(-n2nc(C(C)C)c3c(N4CCC(C#N)C4)cc(C(=O)O)nc32)c1 (stereo not drawn)", "Group": 1}
{"Compound": "CN(C)c1ncc(-c2cc(C(=O)O)nc3c2c(C(C)(C)C)nn3C2CCCCC2)cn1", "Group": 1}
{"Compound": "CC(C)c1nn(-c2cccc(N3CC(O)C3)c2)c2nc(C(=O)O)cc(-c3ccc(N4CCOCC4)cc3)c12", "Group": 2}
{"Compound": "Cc1nn(-c2ccccc2)c2nc(C(=O)O)cc(-c3ccc(N4CCCC(O)C4)cc3)c12 (stereo not drawn)", "Group": 2}
{"Compound": "CC(C)c1nn(-c2ccc(F)c(F)c2)c2nc(C(=O)O)cc(-c3ccc(N4CCOCC4)cc3)c12", "Group": 2}
{"Compound": "COc1cc(-n2nc(C)c3c(-c4ccc(N5CCOCC5)cc4)cc(C(=O)O)nc32)ccn1", "Group": 0}
{"Compound": "CN(C)c1ccc(-n2nc(C3CCC3)c3c(-c4ccc(N5CCOCC5)cc4)cc(C(=O)O)nc32)cc1", "Group": 1}
